# ASSAYED_SYSTEM: UniProt:Q9UKP6
# Sequence (Q9UKP6 whole entry): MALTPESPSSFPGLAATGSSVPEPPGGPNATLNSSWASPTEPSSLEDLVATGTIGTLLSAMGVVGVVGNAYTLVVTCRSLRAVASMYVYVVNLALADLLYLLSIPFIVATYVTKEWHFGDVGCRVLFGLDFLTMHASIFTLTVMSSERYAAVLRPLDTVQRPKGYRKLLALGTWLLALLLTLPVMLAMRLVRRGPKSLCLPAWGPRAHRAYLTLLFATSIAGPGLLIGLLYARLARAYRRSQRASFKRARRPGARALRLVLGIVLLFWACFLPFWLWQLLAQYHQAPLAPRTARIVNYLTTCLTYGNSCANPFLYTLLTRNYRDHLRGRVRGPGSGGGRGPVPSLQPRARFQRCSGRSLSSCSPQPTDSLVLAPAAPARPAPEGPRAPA
# PROCEDURE_TEXT: Displacement of europium-labeled urotensin-2 from human recombinant urotensin-2 receptor expressed in HEK293 cell membranes after 90 mins by filtration based time resolved fluorometric assay
VALUE_TYPE: IC50 (µM)

Example entries and their recorded answers appear below.
| CHEMICAL_STRING | VALUE_REPORTED |
| --- | --- |
| COc1ccc2sc(C(=O)NC3CCN(Cc4ccc(OC5CCNCC5)c(Br)c4)CC3)cc2c1 | 0.1 |
| O=C(NC1CCN(Cc2ccc(OC3CCNCC3)c(Br)c2)CC1)c1ccno1 | 0.34 |
| O=C(NC1CCN(Cc2ccc(OC3CCNCC3)c(Br)c2)CC1)c1ccccn1 | 0.12 |

[A] O=C(NC1CCN(Cc2ccc(OC3CCNCC3)c(Br)c2)CC1)c1cc2cc(-c3ccccc3)ccc2s1
[B] O=C(NC1CCN(Cc2ccc(OC3CCNCC3)c(Br)c2)CC1)c1cc2ccc(-c3ccc(Cl)cc3)cc2s1
[C] O=C(NC1CCN(Cc2ccc(OC3CCNCC3)c(Br)c2)CC1)c1cc2cc([N+](=O)[O-])ccc2s1
[Q] Hey, quick one: sort these by IC50, largest value first please. Respond with an ordered listing of the labels, as requested.
[A] A, B, C
(A: 0.31 µM, B: 0.14 µM, C: 0.049 µM)

* * *

# PROCEDURE_TEXT: Metabolic stability in rat liver microsomes after 30 mins
# Format: ADME
# ASSAY_SETUP: read-out: Stability
VALUE_TYPE: remaining at 0.5 h (%)
State the answer as a number, implicitly in %.

[Q] I'd like to know its remaining at 0.5 h. The compound in question is N#Cc1ccc2sc(C(=O)NC3CCN(Cc4ccc(OC5CCNCC5)c(Br)c4)CC3)cc2c1
[A] 74

* * *

# PROCEDURE_TEXT: Metabolic stability in human liver microsomes after 30 mins
# Format: ADME
# ASSAY_SETUP: read-out: Stability
VALUE_TYPE: remaining at 0.5 h (%)
Enter your answer as a number in %; do not include the unit.

[Q] Can you share its remaining at 0.5 h? I mean this compound: N#Cc1ccc2sc(C(=O)NC3CCN(Cc4ccc(OC5CCNCC5)c(Br)c4)CC3)cc2c1
[A] 85

* * *

# ASSAYED_SYSTEM: CYP2D6 (Homo sapiens, UniProt P10635)
# Sequence (P10635 whole entry): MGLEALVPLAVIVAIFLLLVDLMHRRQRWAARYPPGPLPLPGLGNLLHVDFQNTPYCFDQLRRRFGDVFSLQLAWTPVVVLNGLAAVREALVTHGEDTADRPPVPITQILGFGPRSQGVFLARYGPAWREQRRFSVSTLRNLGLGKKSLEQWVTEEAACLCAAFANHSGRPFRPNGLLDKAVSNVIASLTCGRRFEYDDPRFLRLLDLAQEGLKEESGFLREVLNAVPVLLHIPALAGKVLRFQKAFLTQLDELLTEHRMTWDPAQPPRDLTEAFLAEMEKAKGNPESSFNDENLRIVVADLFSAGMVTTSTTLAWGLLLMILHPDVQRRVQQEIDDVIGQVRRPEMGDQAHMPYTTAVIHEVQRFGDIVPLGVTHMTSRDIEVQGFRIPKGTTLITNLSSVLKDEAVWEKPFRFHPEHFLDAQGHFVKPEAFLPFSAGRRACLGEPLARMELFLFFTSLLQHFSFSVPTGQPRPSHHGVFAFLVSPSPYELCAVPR
# PROCEDURE_TEXT: Inhibition of CYP2D6 (unknown origin) at 10 uM
# Assay type: ADME
VALUE_TYPE: inhibition at 10 µM (%)
Give just the number in %; leave the unit off.

[Q] Enter reported inhibition at 10 µM observed with CYP2D6 (Homo sapiens, UniProt P10635) for N#Cc1ccc2sc(C(=O)NC3CCN(Cc4ccc(OC5CCNCC5)c(Br)c4)CC3)cc2c1
[A] 55

* * *

# ASSAYED_SYSTEM: CYP3A4 (Homo sapiens)
# Sequence (P08684 whole entry): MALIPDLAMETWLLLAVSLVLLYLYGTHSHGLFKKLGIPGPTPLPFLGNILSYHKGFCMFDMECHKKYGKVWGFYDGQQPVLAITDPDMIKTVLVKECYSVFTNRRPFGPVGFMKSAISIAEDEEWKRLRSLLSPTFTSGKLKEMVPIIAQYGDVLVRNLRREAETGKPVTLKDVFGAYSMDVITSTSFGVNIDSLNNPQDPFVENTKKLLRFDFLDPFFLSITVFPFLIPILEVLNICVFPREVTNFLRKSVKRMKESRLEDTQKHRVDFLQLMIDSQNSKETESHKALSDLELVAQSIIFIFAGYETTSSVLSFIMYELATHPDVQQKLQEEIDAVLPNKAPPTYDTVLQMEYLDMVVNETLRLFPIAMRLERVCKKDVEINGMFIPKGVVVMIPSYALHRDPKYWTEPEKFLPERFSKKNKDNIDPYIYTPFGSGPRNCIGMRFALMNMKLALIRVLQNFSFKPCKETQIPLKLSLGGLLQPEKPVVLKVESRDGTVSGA
# PROCEDURE_TEXT: Inhibition of CYP3A4 (unknown origin) at 10 uM
# Type: ADME
VALUE_TYPE: inhibition at 10 µM (%)
Please give a number only; it is taken to be in %.

[Q] Which value of inhibition at 10 µM has been reported for N#Cc1ccc2sc(C(=O)NC3CCN(Cc4ccc(OC5CCNCC5)c(Br)c4)CC3)cc2c1 in the records?
[A] 75

* * *

# ASSAYED_SYSTEM: Urotensin-2 receptor (Homo sapiens, UniProt Q9UKP6)
# PROCEDURE_TEXT: Displacement of europium-labeled urotensin-2 from human recombinant urotensin-2 receptor expressed in HEK293 cell membranes after 90 mins by filtration based time resolved fluorometric assay
VALUE_TYPE: IC50 (µM)

| CHEMICAL_STRING | IC50 / µM |
| --- | --- |
| O=C(NC1CCN(Cc2ccc(OC3CCNCC3)c(Br)c2)CC1)c1cc2ccccc2s1 | 0.063 |
| Cc1ccc(-c2ccc3cc(C(=O)NC4CCN(Cc5ccc(OC6CCNCC6)c(Br)c5)CC4)sc3c2)cc1 | 0.14 |
| O=C(NC1CCN(Cc2ccc(OC3CCNCC3)c(Br)c2)CC1)c1cc2cc(Br)ccc2s1 | 0.086 |
| COc1cccc(-c2ccc3cc(C(=O)NC4CCN(Cc5ccc(OC6CCNCC6)c(Br)c5)CC4)sc3c2)c1 | 0.087 |
| O=C(NC1CCN(Cc2ccc(OC3CCNCC3)c(Br)c2)CC1)c1cc2ccc(-c3ccccc3)cc2s1 | 0.09 |
| COc1ccc(-c2ccc3cc(C(=O)NC4CCN(Cc5ccc(OC6CCNCC6)c(Br)c5)CC4)sc3c2)cc1 | 0.049 |

[1] O=C(NC1CCN(Cc2ccc(OC3CCNCC3)c(Br)c2)CC1)c1ccco1
[2] O=C(NC1CCN(Cc2ccc(OC3CCNCC3)c(Br)c2)CC1)c1cc2cc(Cl)ccc2s1
[3] O=C(NC1CCN(Cc2ccc(OC3CCNCC3)c(Br)c2)CC1)c1cccs1
[4] Cc1ccc2sc(C(=O)NC3CCN(Cc4ccc(OC5CCNCC5)c(Br)c4)CC3)cc2c1
[5] N#Cc1ccc2sc(C(=O)NC3CCN(Cc4ccc(OC5CCNCC5)c(Br)c4)CC3)cc2c1
[Q] Order the records so the highest IC50 appears first and the lowest last. State the ranking by listing the labels in the requested order.
[A] 1, 3, 4, 2, 5
(1: 0.77 µM, 3: 0.13 µM, 4: 0.074 µM, 2: 0.051 µM, 5: 0.025 µM)

[P] O=C(NC1CCN(Cc2ccc(OC3CCNCC3)c(Br)c2)CC1)c1cscn1
[Q] O=C(NC1CCN(Cc2ccc(OC3CCNCC3)c(Br)c2)CC1)c1cnccn1
[R] O=C(NC1CCN(Cc2ccc(OC3CCNCC3)c(Br)c2)CC1)c1cc2cc(C(F)(F)F)ccc2s1
[Q] Descending sort on IC50 required. // respond by listing labels in the order requested
[A] P, Q, R
(P: 0.97 µM, Q: 0.61 µM, R: 0.1 µM)

[a] O=C(NC1CCN(Cc2ccc(OC3CCNCC3)c(Br)c2)CC1)c1cc2cc(F)ccc2s1
[b] CCc1ccc2sc(C(=O)NC3CCN(Cc4ccc(OC5CCNCC5)c(Br)c4)CC3)cc2c1
[c] COc1ccccc1-c1ccc2cc(C(=O)NC3CCN(Cc4ccc(OC5CCNCC5)c(Br)c4)CC3)sc2c1
[Q] Please list these in order of increasing IC50. Thank you! Quick reminder: the answer is the labels in the order asked.
[A] a, b, c
(a: 0.053 µM, b: 0.18 µM, c: 0.56 µM)

Data origin: ChEMBL document CHEMBL3856257
